Parameter Body Weight Change on Day 4: see the listing below.
test system: P388 murine leukemia; experiment: In vivo antitumor activity against P388 leukemia (ip tumor implant / ip drug); conditions: dose 0.05 mg/kg/day ip, once daily for five days;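 note: dosing started the day after tumor implantation, and %T/C expresses median survival of treated mice relative to the saline-treated control group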
Starred links: 1 amine or outer side, 2 acyl side, 3 side chain; linkers in the order of their positions; H or OH if unused. Positions of bridges follow the written chain, without caps; N, C: chain ends. Non-standard residues stand in square brackets, D forms with d. Residues, ends and D or L forms follow the SMILES beside them. Chains are numbered I, II in the order given. ξ: configuration not given here. *: point of attachment. X2 = CC(C)C(=O)OC1CC=NN([*:1])C1C(=O)[*:2]; ξNMeVal(3-OH) = CNC(C(=O)O)C(C)(C)O; X1 = COc1ccc2nc(C(=O)*)cnc2c1; Sar = CNCC(=O)O

COc1ccc2nc(C(=O)NC3COC(=O)C(C(C)(C)O)N(C)C(=O)CN(C)C(=O)CNC(=O)C4C(OC(=O)C(C)C)CC=NN4C(=O)C(NC(=O)c4cnc5cc(OC)ccc5n4)COC(=O)C(C(C)(C)O)N(C)C(=O)CN(C)C(=O)CNC(=O)C4C(OC(=O)C(C)C)CC=NN4C3=O)cnc2c1 (centres unmarked) [BMY-45012] (I: X1-S[X2]G[Sar][ξNMeVal(3-OH)] / II: X1-S[X2]G[Sar][ξNMeVal(3-OH)]; ester I:1-II:C, I:C-II:1; configuration not given here)    0.3

# input for lookup
Fill in the recorded Body Weight Change on Day 4 for this molecule, with P388 murine leukemia as test system: CCC(=O)OC1CC=NN2C(=O)C(NC(=O)c3cnc4cc(OC)ccc4n3)COC(=O)C(C(C)(C)O)N(C)C(=O)CN(C)C(=O)CNC(=O)C3C(OC(C)=O)CC=NN3C(=O)C(NC(=O)c3cnc4cc(OC)ccc4n3)COC(=O)C(C(C)(C)O)N(C)C(=O)CN(C)C(=O)CNC(=O)C12 (centres unmarked) -0.0
